Tested on: pronase
Assay: Stability towards proteolysis (pronase, LC-MS)
Type: in vitro ADME, Streptomyces griseus
Conditions: peptide 200 µM; protease 5 µg/mL; 37°C; pH 7.5; 0-2 h
Square brackets hold non-standard residues; d marks the D form. Peptide text beside a SMILES is read from it. βAla = NCCC(=O)O
quantity-name: stability against proteolysis

CSCC[C@H](NC(=O)[C@H](Cc1c[nH]c2ccccc12)NC(=O)[C@H](CCCNC(=N)N)NC(=O)CCN)C(=O)N[C@@H](CC(C)C)C(=O)N[C@H](C(=O)N[C@@H](Cc1ccc(O)cc1)C(=O)N[C@@H](CCCNC(=N)N)C(=O)N[C@@H](CCCNC(=N)N)C(N)=O)C(C)C [LP20] (H-[βAla]RWMLVYRR-NH2) : Low stability
CC(C)C[C@H](NC(=O)[C@H](CCCNC(=N)N)NC(=O)CNC(=O)CCN)C(=O)N[C@@H](CCCNC(=N)N)C(=O)N[C@@H](Cc1c[nH]c2ccccc12)C(=O)N[C@@H](CC(C)C)C(=O)N[C@@H](CCCNC(=N)N)C(=O)N[C@H](C(N)=O)C(C)C [LP32] (H-[βAla]GRLRWLRV-NH2) : low stability
CC(=O)NCCC(=O)NCC(=O)N[C@@H](CCCNC(=N)N)C(=O)N[C@@H](CC(C)C)C(=O)N[C@@H](CCCNC(=N)N)C(=O)N[C@@H](Cc1c[nH]c2ccccc12)C(=O)N[C@@H](CC(C)C)C(=O)N[C@@H](CCCNC(=N)N)C(=O)N[C@H](C(N)=O)C(C)C [Ac-LP32, Ac-βA -G-R-L-R-W-L-R-V-CONH2] (Ac-[βAla]GRLRWLRV-NH2) : low stability
CSCC[C@H](NC(=O)[C@H](Cc1c[nH]c2ccccc12)NC(=O)[C@H](CCCNC(=N)N)NC(=O)CCNC(C)=O)C(=O)N[C@@H](CC(C)C)C(=O)N[C@H](C(=O)N[C@@H](Cc1ccc(O)cc1)C(=O)N[C@@H](CCCNC(=N)N)C(=O)N[C@@H](CCCNC(=N)N)C(N)=O)C(C)C [Ac-LP20, Ac-βA -R-W-M-L-V-Y-R-R-CONH2] (Ac-[βAla]RWMLVYRR-NH2) : Low stability

###

System: P. infestans
Format: cell-based
Conditions: Ala-scan of Ac-LP32; P. infestans mycelium in vitro
Square brackets hold non-standard residues; d marks the D form. Peptide text beside a SMILES is read from it. βAla = NCCC(=O)O
quantity-name: PPI (%) micelio
Supply the numeric figure in %, leaving out any unit text.

Query PPI (%) micelio for CC(=O)NCCC(=O)NCC(=O)N[C@@H](CCCNC(=N)N)C(=O)N[C@@H](CC(C)C)C(=O)N[C@@H](CCCNC(=N)N)C(=O)N[C@@H](Cc1c[nH]c2ccccc12)C(=O)N[C@@H](CC(C)C)C(=O)N[C@@H](C)C(=O)N[C@H](C(N)=O)C(C)C [Ac-LP32-Ala8, Ac-βA-GRLRWLAV-CONH2] (Ac-[βAla]GRLRWLAV-NH2)
17.56

Return reported PPI (%) micelio. Input compound: CC(=O)NCCC(=O)NCC(=O)N[C@@H](CCCNC(=N)N)C(=O)N[C@@H](C)C(=O)N[C@@H](CCCNC(=N)N)C(=O)N[C@@H](Cc1c[nH]c2ccccc12)C(=O)N[C@@H](CC(C)C)C(=O)N[C@@H](CCCNC(=N)N)C(=O)N[C@H](C(N)=O)C(C)C [Ac-LP32-Ala4, Ac-βA-GRARWLRV-CONH2] (Ac-[βAla]GRARWLRV-NH2)
56.49

Respond only with PPI (%) micelio recorded for CC(=O)NCCC(=O)NCC(=O)N[C@@H](CCCNC(=N)N)C(=O)N[C@@H](CC(C)C)C(=O)N[C@@H](CCCNC(=N)N)C(=O)N[C@@H](Cc1c[nH]c2ccccc12)C(=O)N[C@@H](CC(C)C)C(=O)N[C@@H](CCCNC(=N)N)C(=O)N[C@H](C(N)=O)C(C)C [Ac-LP32, Ac-βA -G-R-L-R-W-L-R-V-CONH2] (Ac-[βAla]GRLRWLRV-NH2)
70.23

Source: patent EP4549575A1
